Data origin, for the record: ChEMBL document CHEMBL4715869

- assay: Selectivity index, ratio of IC50 for inhibition of recombinant human JAK3 (781 to end residues) to IC50 for inhibition of recombinant human JAK2 (808 to end residues)
Reported Ratio IC50 by item:

| smiles_representation | Ratio IC50 |
| --- | --- |
| Cc1cnc(Nc2ccc3c(c2)CCN(C(=O)/C=C/C(=O)c2ccccc2)C3)nc1-c1cnn(C(C)C)c1 | 12 |
| Cc1cnc(Nc2ccc3c(c2)CN(C(=O)/C=C/CN(C)C)CC3)nc1-c1cnn(C(C)C)c1 | 16 |
| Cc1cnc(Nc2ccc3c(c2)CCN(CC#N)C3)nc1-c1cnn(C(C)C)c1 | 7.7 |

====

- assay: Inhibition of JAK2 V617F mutant in mouse BaF3 cells assessed as reduction in cell viability incubated for 72 hrs by MTT assay

| smiles_representation | IC50, nM |
| --- | --- |
| Cc1cnc(Nc2ccc(N3CCC(N(C)CCO)CC3)c(F)c2)nc1-c1cnn(C(C)C)c1 | 145 |

====

- System: Receptor-type tyrosine-protein kinase FLT3 (Homo sapiens), P36888 [UNDEFINED MUTATION]
- assay: Inhibition of FLT3 ITD mutant in human MOLM13 cells assessed as residual activity at 100 nM relative to control
- Type: cell-based
- experimental_context: MOLM-13

| smiles_representation | unit | Activity |
| --- | --- | --- |
| Cc1cnc(Nc2ccc3c(c2)CCN(C(=O)Nc2cccc(Cl)c2)C3)nc1-c1cnn(C(C)C)c1 | % | 99 |
| Cc1cnc(Nc2ccc3c(n2)CCN(CCCO)C3)nc1-c1cnn(C(C)C)c1 | % | 88 |
| Cc1cnc(Nc2ccc3c(c2)CCN(CCCCCO)C3)nc1-c1cnn(C(C)C)c1 | % | 63 |
| CCOCCN1CCc2cc(Nc3ncc(C)c(-c4cnn(C(C)C)c4)n3)ccc2C1 | % | 40 |
| CCCCN1CCc2cc(Nc3ncc(C)c(-c4cnn(C(C)C)c4)n3)ccc2C1 | % | 57 |
| Cc1cnc(Nc2ccc(N3CCC(N(C)CCO)CC3)c(F)c2)nc1-c1cnn(C(C)C)c1 | % | 5 |
| Cc1ccc(C(=O)/C=C/C(=O)N2CCc3ccc(Nc4ncc(C)c(-c5cnn(C(C)C)c5)n4)cc3C2)cc1 | % | 59 |

====

- tested_target: Receptor-type tyrosine-protein kinase FLT3 (Homo sapiens, UniProt P36888, D835Y)
- assay: Inhibition of recombinant human FLT3 D835Y mutant (564 to end residues) using EAIYAAPFAKKK as substrate at 40 mins in presence of [gamma-33ATP] by scintillation counting based radiometry assay
For each record, check the reported IC50: if it is below 20 nM write t, else write f.

| smiles_representation | class_assignment |
| --- | --- |
| Cc1cnc(Nc2ccc3c(c2)CN(C(=O)/C=C/C(=O)c2ccccc2)CC3)nc1-c1cnn(C(C)C)c1 | t |
| Cc1ccc(C(=O)/C=C/C(=O)N2CCc3ccc(Nc4ncc(C)c(-c5cnn(C(C)C)c5)n4)cc3C2)cc1 | t |
| Cc1cnc(Nc2ccc3c(c2)CCN(CC#N)C3)nc1-c1cnn(C(C)C)c1 | f |
| Cc1ccc(C(=O)/C=C/C(=O)N2CCc3cc(Nc4ncc(C)c(-c5cnn(C(C)C)c5)n4)ccc3C2)cc1 | f |
| COC(=O)/C=C/CN1CCc2cc(Nc3ncc(C)c(-c4cnn(C(C)C)c4)n3)ccc2C1 | f |
| Cc1cnc(Nc2ccc3c(c2)CN(C(=O)/C=C/CN(C)C)CC3)nc1-c1cnn(C(C)C)c1 | f |
| Cc1cnc(Nc2ccc3c(c2)CCN(C(=O)/C=C/CN(C)C)C3)nc1-c1cnn(C(C)C)c1 | f |
| Cc1cnc(Nc2ccc3c(c2)CCN(C(=O)/C=C/C(=O)c2ccccc2)C3)nc1-c1cnn(C(C)C)c1 | f |

====

- tested_target: Tyrosine-protein kinase JAK2 (Homo sapiens, UniProt O60674)
- Sequence (O60674 whole entry): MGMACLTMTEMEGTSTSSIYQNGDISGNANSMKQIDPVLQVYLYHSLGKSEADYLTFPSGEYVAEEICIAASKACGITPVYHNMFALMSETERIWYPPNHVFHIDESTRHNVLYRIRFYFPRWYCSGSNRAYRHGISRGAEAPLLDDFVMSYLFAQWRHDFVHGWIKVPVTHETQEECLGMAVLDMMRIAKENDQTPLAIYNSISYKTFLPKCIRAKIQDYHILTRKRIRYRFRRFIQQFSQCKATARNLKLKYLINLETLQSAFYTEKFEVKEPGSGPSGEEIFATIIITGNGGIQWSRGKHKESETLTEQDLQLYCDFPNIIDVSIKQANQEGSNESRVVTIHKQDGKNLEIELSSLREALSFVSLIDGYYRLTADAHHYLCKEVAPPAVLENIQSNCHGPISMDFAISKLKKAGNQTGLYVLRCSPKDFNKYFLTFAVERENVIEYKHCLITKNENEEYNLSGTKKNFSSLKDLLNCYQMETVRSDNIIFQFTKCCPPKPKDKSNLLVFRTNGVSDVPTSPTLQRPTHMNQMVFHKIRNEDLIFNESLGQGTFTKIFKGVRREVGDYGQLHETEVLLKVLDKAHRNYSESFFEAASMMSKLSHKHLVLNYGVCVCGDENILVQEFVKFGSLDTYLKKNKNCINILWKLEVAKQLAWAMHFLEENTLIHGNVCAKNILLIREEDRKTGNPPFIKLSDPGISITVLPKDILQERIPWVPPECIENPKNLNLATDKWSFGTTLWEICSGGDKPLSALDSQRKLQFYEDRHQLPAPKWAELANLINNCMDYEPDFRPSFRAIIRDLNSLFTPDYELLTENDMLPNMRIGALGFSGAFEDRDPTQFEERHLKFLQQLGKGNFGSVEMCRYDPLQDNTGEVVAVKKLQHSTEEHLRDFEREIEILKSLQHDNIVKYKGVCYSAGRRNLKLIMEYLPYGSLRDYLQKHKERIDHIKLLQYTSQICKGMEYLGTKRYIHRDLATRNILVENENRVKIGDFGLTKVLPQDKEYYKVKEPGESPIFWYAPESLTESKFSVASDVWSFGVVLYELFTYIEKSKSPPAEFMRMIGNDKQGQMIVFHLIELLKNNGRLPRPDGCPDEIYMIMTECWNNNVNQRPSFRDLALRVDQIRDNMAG
- assay: Inhibition of recombinant human JAK2 (808 to end residues) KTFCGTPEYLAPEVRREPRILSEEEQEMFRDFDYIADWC as substrate measured after 40 mins in presence of [gamm33P]ATP by scintillation counting method
measured_attribute: IC50 (nM)

| smiles_representation | observed |
| --- | --- |
| Cc1cnc(Nc2ccc3c(c2)CCN(C(=O)/C=C/CN(C)C)C3)nc1-c1cnn(C(C)C)c1 | 3 |
| Cc1ccc(C(=O)/C=C/C(=O)N2CCc3cc(Nc4ncc(C)c(-c5cnn(C(C)C)c5)n4)ccc3C2)cc1 | 3 |
| Cc1cnc(Nc2ccc3c(c2)CN(C(=O)/C=C/CN(C)C)CC3)nc1-c1cnn(C(C)C)c1 | 9 |
| Cc1cnc(Nc2ccc3c(c2)CN(C(=O)/C=C/C(=O)c2ccccc2)CC3)nc1-c1cnn(C(C)C)c1 | 2 |
| Cc1cnc(Nc2ccc3c(c2)CCN(C(=O)/C=C/C(=O)c2ccccc2)C3)nc1-c1cnn(C(C)C)c1 | 10 |
| COC(=O)/C=C/CN1CCc2cc(Nc3ncc(C)c(-c4cnn(C(C)C)c4)n3)ccc2C1 | 2 |
| Cc1cnc(Nc2ccc3c(c2)CCN(CC#N)C3)nc1-c1cnn(C(C)C)c1 | 7 |

====

- assay: Selectivity index, ratio of IC50 for inhibition of recombinant human FLT3 D835Y mutant (564 to end residues) to IC50 for inhibition of recombinant human JAK2 (808 to end residues)
We begin with a simple list: items and their reported Ratio IC50.
measured_attribute: Ratio IC50

| smiles_representation | measured_attribute | observed |
| --- | --- | --- |
| Cc1cnc(Nc2ccc3c(c2)CN(C(=O)/C=C/CN(C)C)CC3)nc1-c1cnn(C(C)C)c1 | Ratio IC50 | 2.5 |
| Cc1cnc(Nc2ccc3c(c2)CCN(C(=O)/C=C/C(=O)c2ccccc2)C3)nc1-c1cnn(C(C)C)c1 | Ratio IC50 | 3.4 |
| COC(=O)/C=C/CN1CCc2cc(Nc3ncc(C)c(-c4cnn(C(C)C)c4)n3)ccc2C1 | Ratio IC50 | 11.5 |
| Cc1cnc(Nc2ccc3c(c2)CCN(C(=O)/C=C/CN(C)C)C3)nc1-c1cnn(C(C)C)c1 | Ratio IC50 | 20.7 |
| Cc1cnc(Nc2ccc3c(c2)CCN(CC#N)C3)nc1-c1cnn(C(C)C)c1 | Ratio IC50 | 15.4 |
| Cc1cnc(Nc2ccc3c(c2)CN(C(=O)/C=C/C(=O)c2ccccc2)CC3)nc1-c1cnn(C(C)C)c1 | Ratio IC50 | 8 |
| Cc1ccc(C(=O)/C=C/C(=O)N2CCc3cc(Nc4ncc(C)c(-c5cnn(C(C)C)c5)n4)ccc3C2)cc1 | Ratio IC50 | 10 |

====

- assay: Cmax in male Sprague-Dawley rat at 5 mg/kg, po administered via gavage measured upto 24 hrs by LC/MS/MS analysis
- Assay type: ADME, organism-based
- Design: route oral, dose 5 mg/kg, time <=24
- experimental_context: in vivo
measured_attribute: Cmax (ng/mL)

| smiles_representation | observed |
| --- | --- |
| Cc1cnc(Nc2ccc3c(c2)CCN(C(=O)/C=C/CN(C)C)C3)nc1-c1cnn(C(C)C)c1 | 51.1 |

====

// reported Activity per item
- System: Receptor-type tyrosine-protein kinase FLT3 (Homo sapiens), P36888 [UNDEFINED MUTATION]
- assay: Inhibition of FLT3 ITD mutant in human MOLM13 cells assessed as residual activity at 100 nM relative to control
- Assay type: cell-based
- experimental_context: MOLM-13

| smiles_representation | tested_target | unit | Activity |
| --- | --- | --- | --- |
| CC(C)n1cc(-c2nc(Nc3ccc4c(c3)CCN(CCO)C4)ncc2F)cn1 | Receptor-type tyrosine-protein kinase FLT3 (Homo sapiens), P36888 [UNDEFINED MUTATION] | % | 43 |
| CC(C)n1cc(-c2nc(Nc3ccc4c(c3)CCN(C(=O)CO)C4)ncc2F)cn1 | Receptor-type tyrosine-protein kinase FLT3 (Homo sapiens), P36888 [UNDEFINED MUTATION] | % | 39 |
| Cc1cnc(Nc2ccc3c(c2)CCN(CC#N)C3)nc1-c1cnn(C(C)C)c1 | Receptor-type tyrosine-protein kinase FLT3 (Homo sapiens), P36888 [UNDEFINED MUTATION] | % | 50 |
| COC(=O)/C=C/CN1CCc2cc(Nc3ncc(C)c(-c4cnn(C(C)C)c4)n3)ccc2C1 | Receptor-type tyrosine-protein kinase FLT3 (Homo sapiens), P36888 [UNDEFINED MUTATION] | % | 53 |
| COC(=O)/C=C/CN1CCc2ccc(Nc3ncc(C)c(-c4cnn(C(C)C)c4)n3)cc2C1 | Receptor-type tyrosine-protein kinase FLT3 (Homo sapiens), P36888 [UNDEFINED MUTATION] | % | 43 |
| Cc1ccc(C(=O)/C=C/C(=O)N2CCc3cc(Nc4ncc(C)c(-c5cnn(C(C)C)c5)n4)ccc3C2)cc1 | Receptor-type tyrosine-protein kinase FLT3 (Homo sapiens), P36888 [UNDEFINED MUTATION] | % | 55 |
| CC(C)n1cc(-c2nc(Nc3ccc4c(c3)CCN(CCCO)C4)ncc2F)cn1 | Receptor-type tyrosine-protein kinase FLT3 (Homo sapiens), P36888 [UNDEFINED MUTATION] | % | 44 |
| Cc1cnc(Nc2ccc3c(c2)CCN3CCO)nc1-c1cnn(C(C)C)c1 | Receptor-type tyrosine-protein kinase FLT3 (Homo sapiens), P36888 [UNDEFINED MUTATION] | % | 79 |
| Cc1cnc(Nc2ccc3c(c2)CCN(CCC#N)C3)nc1-c1cnn(C(C)C)c1 | Receptor-type tyrosine-protein kinase FLT3 (Homo sapiens), P36888 [UNDEFINED MUTATION] | % | 35 |
| Cc1cnc(Nc2ccc3c(c2)CCN(C(=O)/C=C/C(=O)c2ccccc2)C3)nc1-c1cnn(C(C)C)c1 | Receptor-type tyrosine-protein kinase FLT3 (Homo sapiens), P36888 [UNDEFINED MUTATION] | % | 41 |
| CC#CCN1CCc2cc(Nc3ncc(C)c(-c4cnn(C(C)C)c4)n3)ccc2C1 | Receptor-type tyrosine-protein kinase FLT3 (Homo sapiens), P36888 [UNDEFINED MUTATION] | % | 85 |
| Cc1cnc(Nc2ccc3c(c2)CCN(C(=O)/C=C/CN(C)C)C3)nc1-c1cnn(C(C)C)c1 | Receptor-type tyrosine-protein kinase FLT3 (Homo sapiens), P36888 [UNDEFINED MUTATION] | % | 54 |
| Cc1cnc(Nc2ccc3c(c2)CN(CC#N)CC3)nc1-c1cnn(C(C)C)c1 | Receptor-type tyrosine-protein kinase FLT3 (Homo sapiens), P36888 [UNDEFINED MUTATION] | % | 51 |
| C=CCN1CCc2cc(Nc3ncc(C)c(-c4cnn(C(C)C)c4)n3)ccc2C1 | Receptor-type tyrosine-protein kinase FLT3 (Homo sapiens), P36888 [UNDEFINED MUTATION] | % | 67 |
| Cc1cnc(Nc2ccc3c(c2)CCN(C/C=C/C(=O)O)C3)nc1-c1cnn(C(C)C)c1 | Receptor-type tyrosine-protein kinase FLT3 (Homo sapiens), P36888 [UNDEFINED MUTATION] | % | 78 |
| CC(C)n1cc(-c2nc(Nc3ccc4c(c3)CCN(CCCCCO)C4)ncc2F)cn1 | Receptor-type tyrosine-protein kinase FLT3 (Homo sapiens), P36888 [UNDEFINED MUTATION] | % | 42 |
| Cc1cnc(Nc2ccc3c(c2)CCN(CCCCO)C3)nc1-c1cnn(C(C)C)c1 | Receptor-type tyrosine-protein kinase FLT3 (Homo sapiens), P36888 [UNDEFINED MUTATION] | % | 56 |
| C#CCN1CCc2cc(Nc3ncc(C)c(-c4cnn(C(C)C)c4)n3)ccc2C1 | Receptor-type tyrosine-protein kinase FLT3 (Homo sapiens), P36888 [UNDEFINED MUTATION] | % | 79 |
| Cc1cnc(Nc2ccc3c(c2)CCN(CCO)C3)nc1-c1cnn(C(C)C)c1 | Receptor-type tyrosine-protein kinase FLT3 (Homo sapiens), P36888 [UNDEFINED MUTATION] | % | 66 |
| Cc1cnc(Nc2ccc3c(c2)CN(C(=O)/C=C/CN(C)C)CC3)nc1-c1cnn(C(C)C)c1 | Receptor-type tyrosine-protein kinase FLT3 (Homo sapiens), P36888 [UNDEFINED MUTATION] | % | 52 |
